B1: Serine/threonine-protein kinase A-Raf, residues 21 to 89; numbered along this chain, P10398 (parent)
chain: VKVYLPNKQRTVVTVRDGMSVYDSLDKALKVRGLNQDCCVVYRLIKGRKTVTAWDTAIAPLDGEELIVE

- Variants of: B1
- assay.notes: abundance fitness (aPCA) (normalised: wild type 0, dead -1); higher = more abundant; growth selection in yeast, the domain comes from the species named
- study.conditions: Homo sapiens
property.name: abundance fitness
One number for each entry.

// known answers, use as guide
A59E :: -0.068
K30N :: -0.478
V21C :: -0.707
L5C :: -0.784
Q9W :: -0.448
V51H :: -0.156

Batch request: abundance fitness for each of the following variants.
1. K8P
2. K46R
3. L44Q
4. N7H
5. V41S

1: -1.02; 2: -0.024; 3: -0.307; 4: -0.272; 5: -0.515

Dear reader, for each entry below, please note its abundance fitness.
1. V41Y
2. R48G
3. I58F
4. V15F
5. G18M
6. D62C
7. V21M
8. T52G

1. -0.938
2. -0.479
3. -0.021
4. -0.001
5. -0.89
6. 0.13
7. -0.207
8. -0.956

Could I get abundance fitness for every one of these entries?
1. T56H
2. C38E
3. V68I

1: -0.151; 2: 0.118; 3: -0.127

Could you tell me abundance fitness for each of these variants? They are listed below.
1. D23A
2. V15G
3. R16A
4. V21H
5. L25A

[-0.201, -0.17, -0.027, -0.996, -0.919]
